The values you see were collected from patent US20120201854A1.

Target: the molecule itself
Assay: native-gel electrophoresis, self-association in aqueous solution
experimental.readout: binding result

{"protein": "flagellin mutant (N135D) of V. vulnificus flagellin FlaB (ligand, Recombinant, from pTYB12 intein fusion in E. coli ER2566) MAVNVNTNVAAMTAQRYLNNANSAQQTSMERLSSGFKINSAKDDAAGLQISNRLNVQSRGLDVAVRNANDGISIAQTAEGAMNETTNILQRMRDLSLQSANGSNSKSERVAIQEEVTALNDELNRIAETTSFGGDKLLNGTYGTKAMQIGADNGEAVMLSLKDMRSDNVMMGGVSYQAEEGKDKNWNVAAGDNDLTIALTDSFGNEQEIEINAKAGDDIEELATYINGQTDLVKASVGEGGKLQIFAGNNKVQGEIAFSGSLAGELGLGEGKNVTVDTIDVTTVQGAQESVAIVDAALKYVDSHRAELGAFQNRFNHAISNLDNINENVNASKSRIKDTDFAKETTQLTKTQILSQASSSILAQAKQAPNSALSLLG", "meas.value": "binds"}
{"protein": "flagellin mutant (D70A) of V. vulnificus flagellin FlaB (ligand, Recombinant, expressed in E. coli ER2566 from pTYB12 as intein fusion, released with DTT) MAVNVNTNVAAMTAQRYLNNANSAQQTSMERLSSGFKINSAKDDAAGLQISNRLNVQSRGLDVAVRNANAGISIAQTAEGAMNETTNILQRMRDLSLQSANGSNSKSERVAIQEEVTALNDELNRIAETTSFGGNKLLNGTYGTKAMQIGADNGEAVMLSLKDMRSDNVMMGGVSYQAEEGKDKNWNVAAGDNDLTIALTDSFGNEQEIEINAKAGDDIEELATYINGQTDLVKASVGEGGKLQIFAGNNKVQGEIAFSGSLAGELGLGEGKNVTVDTIDVTTVQGAQESVAIVDAALKYVDSHRAELGAFQNRFNHAISNLDNINENVNASKSRIKDTDFAKETTQLTKTQILSQASSSILAQAKQAPNSALSLLG", "meas.value": "binds"}
{"protein": "flagellin mutant (L97W) of V. vulnificus flagellin FlaB (ligand, Recombinant, from pTYB12 intein fusion in E. coli ER2566) MAVNVNTNVAAMTAQRYLNNANSAQQTSMERLSSGFKINSAKDDAAGLQISNRLNVQSRGLDVAVRNANDGISIAQTAEGAMNETTNILQRMRDLSWQSANGSNSKSERVAIQEEVTALNDELNRIAETTSFGGNKLLNGTYGTKAMQIGADNGEAVMLSLKDMRSDNVMMGGVSYQAEEGKDKNWNVAAGDNDLTIALTDSFGNEQEIEINAKAGDDIEELATYINGQTDLVKASVGEGGKLQIFAGNNKVQGEIAFSGSLAGELGLGEGKNVTVDTIDVTTVQGAQESVAIVDAALKYVDSHRAELGAFQNRFNHAISNLDNINENVNASKSRIKDTDFAKETTQLTKTQILSQASSSILAQAKQAPNSALSLLG", "meas.value": "binds"}
